Where do these numbers come from? They come from patent US8133909B2.

biological target: human orexin-2 (hOX2) receptors (Homo sapiens, UniProt O43614); construct: expressed in transfected cells; test: Intracellular Ca2+ mobilization assay (FLIPR), antagonism of orexin-A; format: cell-based; conditions: CHO(dHFr-) cells stably expressing hOX2; orexin-A at EC80 as agonist; antagonist applied 25 min before; Kb=IC50/(1+[A]/EC50); read-out: Kb (μM) OX2R (human)
Sequence (O43614 whole entry): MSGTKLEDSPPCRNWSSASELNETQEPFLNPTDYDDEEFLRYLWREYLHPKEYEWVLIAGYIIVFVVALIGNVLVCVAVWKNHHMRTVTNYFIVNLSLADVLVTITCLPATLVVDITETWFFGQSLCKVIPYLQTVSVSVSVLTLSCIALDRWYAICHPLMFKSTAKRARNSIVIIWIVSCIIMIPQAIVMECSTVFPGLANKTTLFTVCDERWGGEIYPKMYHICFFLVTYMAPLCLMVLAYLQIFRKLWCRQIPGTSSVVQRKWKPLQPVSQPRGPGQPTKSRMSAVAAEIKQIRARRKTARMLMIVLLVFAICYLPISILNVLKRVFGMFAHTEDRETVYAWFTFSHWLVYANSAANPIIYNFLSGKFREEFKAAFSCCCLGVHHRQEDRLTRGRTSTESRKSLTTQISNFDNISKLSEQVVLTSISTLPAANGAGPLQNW
Readings of Kb for the listed compounds
Please give the number followed by its unit.

Cc1ccc(N(CCc2ccc(C(F)(F)F)cn2)C(=O)[C@@H](O)c2ccccc2)cc1C | 0.0038 µM

Item: COc1ccc(N(CCc2ccc(C(F)(F)F)cn2)C(=O)C(O)c2ccc(F)cc2)cc1C (racemic) | Kb: 0.0146 µM

Item: Cc1ccc(N(CCc2ccc(C(F)(F)F)nc2)C(=O)C(=O)c2ccccc2)cc1C | Kb: 0.0916 µM

Item: CCc1cc(N(CCc2ccc(C(F)(F)F)cn2)C(=O)C(O)c2ccc(F)cc2)ccc1Cl (racemic) | Kb: 0.0276 µM

Item: Cc1cc(N(CCc2ccc(C(F)(F)F)cn2)C(=O)[C@@H](O)c2ccc(F)cc2)ccc1F | Kb: 0.0197 µM

Item: Cc1nn(C)c2ccc(N(CCc3ccc(C(F)(F)F)nc3)C(=O)[C@@H](O)c3ccc(F)cc3)cc12 | Kb: 0.0046 µM

Item: COC(=O)c1cc(N(CCc2ccc(C(F)(F)F)cn2)C(=O)C(O)c2ccc(F)cc2)ccc1Cl (racemic) | Kb: 0.0285 µM

* * *

target: human orexin-2 (hOX2) receptors (Homo sapiens, UniProt O43614); construct: expressed in transfected cells; assay: Intracellular Ca2+ mobilization assay (FLIPR), antagonism of orexin-A; format: cell-based; settings: CHO(dHFr-) cells stably expressing hOX2; orexin-A at EC80 as agonist; antagonist applied 25 min before; Kb=IC50/(1+[A]/EC50); read-out: Kb (μM) OX2R (human)
Readings of Kb for the listed molecules

Item: O=C(C(O)c1ccc(F)cc1)N(CCc1ccc(C(F)(F)F)cn1)c1ccc(F)c(CO)c1 (racemic) | Kb: 0.0438 µM

Item: O=C([C@@H](O)c1ccccc1)N(CCc1ccc(C(F)(F)F)nc1)c1ccc2c(c1)CCCC2 | Kb: 0.0015 µM

* * *

target: human orexin-2 (hOX2) receptors (Homo sapiens, UniProt O43614); construct: expressed in transfected cells; experiment: Intracellular Ca2+ mobilization assay (FLIPR), antagonism of orexin-A; format: cell-based; conditions: CHO(dHFr-) cells stably expressing hOX2; orexin-A at EC80 as agonist; antagonist applied 25 min before; Kb=IC50/(1+[A]/EC50); read-out: Kb (μM) OX2R (human)
Readings of log10 Kb for the listed compounds
Short version: log10 scale, Kb, µM.

Here is how some compounds turned out for log10 Kb.
O=C(C(O)c1ccc(F)cc1)N(CCc1ccc(C(F)(F)F)cn1)c1ccc2c(c1)CCO2 (racemic) [Example 75] | -1.89
COc1cc(N(CCc2ccc(C(F)(F)F)cn2)C(=O)[C@@H](O)c2ccc(F)cc2)ccc1F [Example 92] | -1.84
Cc1n[nH]c2ccc(N(CCc3ccc(C(F)(F)F)nc3)C(=O)[C@@H](O)c3ccc(F)cc3)cc12 [Example 106] | -1.60
COc1cc(N(CCc2ccc(C(F)(F)F)nc2)C(=O)[C@@H](O)c2ccccc2)ccc1C [Example 19] | -1.96
Cc1cc(N(CCc2ccc(C(F)(F)F)cc2)C(=O)C(N)c2ccc(Cl)cc2)n(C)n1 (racemic) [Example 39] | -1.36
Cc1ccc(N(CCc2ccc(F)cn2)C(=O)[C@@H](O)c2ccccc2)cc1C [Example 68] | -1.63
Cc1ccc(N(CCc2ccc(C(F)(F)F)cn2)C(=O)C(O)c2ccc(F)cc2)cc1OC(F)F (racemic) [Example 95] | -1.71
COc1cccc(N(CCc2ccc(C(F)(F)F)nc2)C(=O)[C@@H](O)c2ccccc2)c1 [Example 56] | -1.75
Cc1ccc(CCN(C(=O)C(N)c2ccc(Cl)cc2)c2sc(C)nc2C)cc1 (racemic) [Example 32] | -1.03
CC(=O)O[C@H](C(=O)N(CCc1ccc(C(F)(F)F)cn1)c1ccc(C)c(C)c1)c1ccccc1 [Example 65] | -1.32

Item: O=C([C@@H](O)c1ccc(F)cc1)N(CCc1ccc(C(F)(F)F)cn1)c1ccc2c(c1)CCO2 [Example 87] | log10 Kb: -1.70

Item: Cc1cc(N(CCc2ccc(C(F)(F)F)cc2)C(=O)C(O)c2ccccc2)n(C)n1 (racemic) [Example 42] | log10 Kb: -1.11

Item: O=C(C(O)c1ccc(F)cc1)N(CCc1ccc(C(F)(F)F)cn1)c1ccc(OC(F)F)c(OC(F)F)c1 (racemic) [Example 96] | log10 Kb: -1.67

Item: Cc1ccc(N(CCc2ccc(C(F)(F)F)cn2)C(=O)[C@@H](O)c2ccc(F)cc2)cc1F [Example 80] | log10 Kb: -1.54

Item: O=C([C@@H](O)c1ccccc1)N(CCc1ccc(C(F)(F)F)nc1)c1cnc2ccccc2c1 [Example 49] | log10 Kb: -1.44
